Just for reference, patent US20030032587A1 is where these values come from.

System: primary murine anterior pituitary cells
Assay type: cell-based
EXPERIMENTAL CONTEXT: cultured rodent pituitary cells; no unit printed for this value; read-out: EC50, secretion of ACTH
OUTCOME MEASURE: EC50 (nM)
Response body: numeric value in nM, unit text excluded.

q: # query: EC50 | item H-NDDPPISIDLTFHLLRNMIEMARIENEREQAGLNRKYLDEV-NH2 [sfUI, reference compound] | system: primary murine anterior pituitary cells
a: 0.017
